system: MDA-MB-231 (breast cancer); experiment: Antiproliferative activity (CCK-8 cell viability), MDA-MB-231; assay type: cell-based; details: Homo sapiens, Compound concentration: 10 μM, 72 h, read-out: Antiproliferative activity in cancerous cells, MDA-MB-231 (inhibition of cell growth)
Kindly state inhibition at 10 µM for each of the entries shown.

For the compound shown here, CC1=C(CC(=O)O)c2cc(Br)ccc2/C1=C/c1ccc(Oc2ccc(Cl)cc2)cc1 , give the reported inhibition at 10 µM.
≥ 50%

For the compound shown here, CC1=C(CC(=O)O)c2cc(F)ccc2/C1=C\c1cccc(Sc2ccc(F)cc2)c1 , give the reported inhibition at 10 µM.
≥ 50%

Parameters: items (list). Returns: inhibition at 10 µM for each item.
1. CCc1ccc(COCc2ccc(/C=C3/C(C)=C(CC(=O)O)c4cc(F)ccc43)cc2)cc1
2. COc1ccc2c(c1)C(CC(=O)O)=C(C)/C2=C/c1ccc(Oc2cccc(Cl)c2)cc1
3. CC1=C(CC(=O)O)c2cc(F)ccc2/C1=C\c1ccc(CSc2nc3ccccc3[nH]2)cc1
4. CC1=C(CC(=O)N2CCN(CCO)CC2)c2cc(F)ccc2/C1=C\c1ccc(Oc2ccc(F)cc2)cc1

≥ 50%
30 to 50%
≥ 50%
< 30%

Parameters: items (list). Returns: inhibition at 10 µM for each item.
1. CCC1=C(CC(=O)O)c2cc(F)ccc2/C1=C\c1ccc(Oc2ccc(F)cc2)cc1
2. CC1=C(CC(=O)O)c2cc(F)ccc2/C1=C\c1ccc(Oc2cccc(Cl)c2)cc1

1: ≥ 50%; 2: < 30%
